Biological target: human Yes1 enzyme (Homo sapiens, UniProt P07947)
Construct: made in house
Sequence (P07947 whole entry): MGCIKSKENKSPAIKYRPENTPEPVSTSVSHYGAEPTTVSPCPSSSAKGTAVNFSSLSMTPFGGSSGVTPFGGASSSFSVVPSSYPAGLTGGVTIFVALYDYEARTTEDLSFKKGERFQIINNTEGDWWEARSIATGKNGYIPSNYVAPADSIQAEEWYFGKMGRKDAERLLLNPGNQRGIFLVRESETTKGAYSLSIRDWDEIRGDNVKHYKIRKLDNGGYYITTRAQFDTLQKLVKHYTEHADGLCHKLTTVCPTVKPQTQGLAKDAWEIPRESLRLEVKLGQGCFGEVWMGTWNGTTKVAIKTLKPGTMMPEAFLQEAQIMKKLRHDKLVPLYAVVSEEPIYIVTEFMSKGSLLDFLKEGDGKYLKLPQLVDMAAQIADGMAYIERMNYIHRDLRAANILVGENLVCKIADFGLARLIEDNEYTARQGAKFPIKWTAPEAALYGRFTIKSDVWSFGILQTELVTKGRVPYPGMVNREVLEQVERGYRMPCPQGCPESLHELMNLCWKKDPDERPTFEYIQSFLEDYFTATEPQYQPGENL
Test: Yes1 enzyme inhibitory activity (time-resolved fluorometry, biotinylated peptide phosphorylation)
Assay type: biochemical
Conditions: biotinylated peptide phosphorylation, read-out: YES_IC50
pIC50: −log10 of the molar value.
measuredMetric: pIC50

Would you please look over these solved cases?
compound	pIC50
Nc1c(C(=O)c2cc3cc(F)c(NS(=O)(=O)CCCF)cc3[nH]2)cnn1-c1ccc(Oc2ccccn2)cc1Cl [Example 4-2-018]	9.28
Cc1cc(Oc2ccccc2F)ccc1-n1ncc(C(=O)c2cc3cc(F)c(N4C(=O)NC5(CCCC5)C4=O)cc3[nH]2)c1N [Example 5-1-438]	8.72

(P) Cc1cc2cc(C(=O)c3cnn(-c4cnc(Oc5ccc(F)cc5)cc4C)c3N)[nH]c2cc1NS(C)(=O)=O [Example 4-2-067]
(Q) Cc1cc(-n2ncc(C(=O)c3cc4cc(F)c(C5CCN(C(C)C)CC5)cc4[nH]3)c2N)ccc1Oc1ccccc1F [Example 4-2-014]
Q: Lab note: record which item had the higher pIC50, P or Q . State the label of the item chosen.
Result: P
(P: 8.20, Q: 7.74)

----------
Target: human Yes1 enzyme (Homo sapiens, UniProt P07947)
Construct: made in house
Experiment: Yes1 enzyme inhibitory activity (time-resolved fluorometry, biotinylated peptide phosphorylation)
Type: biochemical
Details: read-out: YES_IC50
pIC50: −log10 of the molar value.
measuredMetric: pIC50

Would you please look over these solved cases?
compound	pIC50
CC(=O)N1CCC(c2cc3[nH]c(C(=O)c4cnn(-c5cnc(Oc6c(F)cccc6F)cc5C)c4N)cc3cc2C)CC1	8.74
Cc1cc(Oc2c(F)cccc2F)ncc1-n1ncc(C(=O)c2cc3cc(OCC(F)F)c(NS(=O)(=O)c4cccnc4)cc3[nH]2)c1N	8.62
Cc1cc(-n2ncc(C(=O)c3cc4cc(OC5CCN(C6CS(=O)(=O)C6)CC5)c(-c5cncnc5)cc4[nH]3)c2N)ccc1Oc1ccccc1F	8.70

(P) Cc1cc(-n2ncc(C(=O)c3cc4cc(OC[C@H](O)CO)c(Br)cc4[nH]3)c2N)ccc1Oc1ccccc1F
(Q) Cc1ccccc1-c1cc2[nH]c(C(=O)c3cnn(-c4cnc(Oc5c(F)cccc5F)cc4C)c3N)cc2cc1OC1CCN(C2CS(=O)(=O)C2)CC1
(R) Cc1cc(Oc2c(F)cccc2F)ncc1-n1ncc(C(=O)c2cc3cc(OC4CCN(C(C)C)CC4)c(Br)cc3[nH]2)c1N
(S) Cc1cc(Oc2cccc(Cl)c2)nc(C)c1-n1ncc(C(=O)c2cc3cc(F)c(NS(C)(=O)=O)cc3[nH]2)c1N
Q: Order by pIC50, ascending. Response format: the labels, sorted as the prompt asks.
Result: S, Q, P, R
(S: 6.92, Q: 8.52, P: 8.82, R: 9.43)

(P) Cc1cc(Oc2ccccc2F)ccc1-n1ncc(C(=O)c2cc3cc(OCC(F)F)c(N4C(=O)[C@@H]5C[C@H](NC(=O)OCC(C)C)CN5C4=O)cc3[nH]2)c1N
(Q) Cc1cc(-n2ncc(C(=O)c3cc4cc(F)c(NS(C)(=O)=O)cc4[nH]3)c2N)ccc1Oc1ccccc1F
Q: Lab note: record which item had the higher pIC50, P or Q . State the label of the item chosen.
Result: P

(1) Cc1cc(Oc2ccccc2F)ccc1-n1ncc(C(=O)c2cc3cc(OC(F)F)c(NS(=O)(=O)C4CCOCC4)cc3[nH]2)c1N
(2) Cc1cc(-n2ncc(C(=O)c3cc4cc(OC5CCN(C6CS(=O)(=O)C6)CC5)c(-c5ccccc5Cl)cc4[nH]3)c2N)ccc1Oc1ccccc1F
Q: Lab note: record which item had the higher pIC50, 1 or 2 . State the label of the item chosen.
Result: 1

(P) CC(C)N1CCC(c2cc3[nH]c(C(=O)c4cnn(-c5ccc(Oc6cccc(F)c6F)cc5)c4N)cc3cc2F)CC1
(Q) Cc1cc(Oc2ccccc2F)ccc1-n1ncc(C(=O)c2cc3cc(F)c(N4CCCC4=O)cc3[nH]2)c1N
Q: Of the pair P and Q , name the member with the lesser recorded pIC50. State the label of the item chosen.
Result: P
(P: 8.80, Q: 9.42)

----------
Molecular target: human Lck enzyme (Homo sapiens, UniProt P06239)
Construct: purchased Carna Biosciences, Inc. 08-170
Sequence (P06239 whole entry): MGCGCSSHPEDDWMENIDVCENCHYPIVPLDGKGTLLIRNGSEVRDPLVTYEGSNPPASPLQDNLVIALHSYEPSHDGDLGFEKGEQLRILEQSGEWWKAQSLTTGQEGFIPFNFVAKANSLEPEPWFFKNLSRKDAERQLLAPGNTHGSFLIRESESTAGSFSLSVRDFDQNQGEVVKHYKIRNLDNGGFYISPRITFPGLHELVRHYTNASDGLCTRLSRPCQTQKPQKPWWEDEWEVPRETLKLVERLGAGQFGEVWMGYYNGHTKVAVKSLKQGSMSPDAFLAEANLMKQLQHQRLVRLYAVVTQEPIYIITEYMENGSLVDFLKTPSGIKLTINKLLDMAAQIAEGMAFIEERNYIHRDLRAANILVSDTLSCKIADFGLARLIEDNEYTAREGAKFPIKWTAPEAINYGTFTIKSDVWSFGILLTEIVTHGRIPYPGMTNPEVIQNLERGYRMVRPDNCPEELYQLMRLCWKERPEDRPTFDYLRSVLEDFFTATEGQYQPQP
Assay: Lck enzyme inhibitory activity (time-resolved fluorometry, biotinylated peptide phosphorylation)
Assay type: biochemical
Conditions: read-out: LCK_IC50
measuredMetric: IC50 (µM)

molecule	scaleUnit	measured
Cc1cc(Oc2ccccc2F)ccc1-n1ncc(C(=O)c2cc3cc(F)c(N4C(=O)NC5(COC5)C4=O)cc3[nH]2)c1N [Example 5-1-376]	µM	0.004
Cc1cc(-n2ncc(C(=O)c3cc4cc(OC5CCN(C6CC6)CC5)c(Br)cc4[nH]3)c2N)ccc1Oc1ccccc1F [Example 5-1-219]	µM	0.083
Cc1cc2cc(C(=O)c3cnn(-c4cnc(Oc5c(F)cccc5F)cc4C)c3N)[nH]c2cc1NS(=O)(=O)CC(=O)N1CCCC1 [Example 5-1-088]	µM	0.0028
Nc1c(C(=O)c2cc3cc(F)c(NS(=O)(=O)C4CC4)cc3[nH]2)cnn1-c1c(F)cc(Oc2cccc(F)c2F)cc1F [Example 5-1-031]	µM	0.034

(a) Cc1cc(-n2ncc(C(=O)c3cc4cc(N5CCOCC5)c(N5CCOCC5)cc4[nH]3)c2N)ccc1Oc1ccccc1F [Example 5-1-159]
(b) Cc1cc(Oc2ccccc2F)ccc1-n1ncc(C(=O)c2cc3cc(C(C)C)c(NS(C)(=O)=O)cc3[nH]2)c1N [Example 5-1-267]
Q: Lab note: record which item had the higher IC50, a or b . State the label of the item chosen.
Result: a
(a: 0.039 µM, b: 0.017 µM)

(A) Cc1cc(Oc2c(F)cccc2F)ncc1-n1ncc(C(=O)c2cc3cc(OC4CCN(C5CCCC5)CC4)c(-c4ccccc4C(F)(F)F)cc3[nH]2)c1N [Example 5-1-387]
(B) Cc1cc(-n2ncc(C(=O)c3cc4cc(OC5CCN(C(C)C)CC5)c(Br)cc4[nH]3)c2N)ccc1Oc1ccccc1F [Example 5-1-148]
Q: Of the pair A and B , name the member with the lesser recorded IC50. State the label of the item chosen.
Result: A

----------
Biological target: human Lck enzyme (Homo sapiens, UniProt P06239)
Construct: purchased Carna Biosciences, Inc. 08-170
Test: Lck enzyme inhibitory activity (time-resolved fluorometry, biotinylated peptide phosphorylation)
Format: biochemical
Settings: read-out: LCK_IC50
Description: 3. Lck Enzyme Inhibitory Activity Lck inhibitory activity was determined based on activity of inhibiting phosphorylation reaction of a biotinylated peptide (EGPWLEEEEEAYGWMDF) using a human Lck enzyme (manufactured by Carna Biosciences, Inc., cat 08-170). The phosphorylated biotinylated peptide was detected by time-resolved fluorometry using an anti-phosphorylated tyrosine antibody conjugated to europium cryptate, and streptavidin conjugated to XL665, an allophycocyanin derivative. […]
pIC50: −log10 of the molar value.
measuredMetric: pIC50

Would you please look over these solved cases?
compound	pIC50
Cc1cc(Oc2c(F)cccc2F)ncc1-n1ncc(C(=O)c2cc3cc(OC4CCN(C5CS(=O)(=O)C5)CC4)c(-c4cncnc4)cc3[nH]2)c1N	8.16
Cc1cc(Oc2ccccc2F)ccc1-n1ncc(C(=O)c2cc3cc(F)c(N4C(=O)C(C)(C)NC4=S)cc3[nH]2)c1N	7.82
Cc1cc(-n2ncc(C(=O)c3cc4cc(OC(F)F)c(NS(C)(=O)=O)cc4[nH]3)c2N)ccc1Oc1ccccc1F	6.43

(a) COc1cc2cc(C(=O)c3cnn(-c4c(C)cc(Oc5ccccc5F)cc4F)c3N)[nH]c2cc1NS(=O)(=O)CC(=O)NC(C)C
(b) Cc1cc(-n2ncc(C(=O)c3cc4cc(OCC(F)F)c(NS(C)(=O)=O)cc4[nH]3)c2N)ccc1Oc1ccccc1F
(c) Cc1cc(Oc2c(F)cccc2F)ncc1-n1ncc(C(=O)c2cc3cc(F)c(N4CCCC4=O)cc3[nH]2)c1N
Q: Arrange by pIC50, high to low. Response format: the labels, sorted as the prompt asks.
Result: c, a, b
(c: 8.85, a: 7.54, b: 6.60)

----------
Target: human Lck enzyme (Homo sapiens)
Construct: purchased Carna Biosciences, Inc. 08-170
Experiment: Lck enzyme inhibitory activity (time-resolved fluorometry, biotinylated peptide phosphorylation)
Type: biochemical
Conditions: read-out: LCK_IC50
measuredMetric: IC50 (nM)

compound	measured
Cc1cc2cc(C(=O)c3cnn(-c4cnc(Oc5c(F)cccc5F)cc4C)c3N)[nH]c2cc1N1C(=O)NC2(CC2)C1=O [Example 5-1-366]	9.9
Cc1cc2cc(C(=O)c3cnn(-c4cnc(Oc5c(F)cccc5F)cc4C)c3N)[nH]c2cc1NS(=O)(=O)C1CCOC1 (stereo not drawn) [Example 5-1-281]	27
Cc1cc(Oc2ccccc2F)ccc1-n1ncc(C(=O)c2cc3cc(C(C)C)c(NS(=O)(=O)CCCF)cc3[nH]2)c1N [Example 5-1-280]	31
Cc1cc(Oc2ccccc2F)ccc1-n1ncc(C(=O)c2cc3cc(F)c(NS(=O)(=O)C4CCOCC4)cc3[nH]2)c1N [Example 5-1-389]	18
Cc1cc(-n2ncc(C(=O)c3cc4cc(OC5CCN(C6CCCC6)CC5)c(-c5ccccc5C)cc4[nH]3)c2N)ccc1Oc1ccccc1F [Example 5-1-335]	120

(1) Cc1cc(Oc2ccccc2F)ccc1-n1ncc(C(=O)c2cc3cc(OCC(F)F)c(N4C(=O)[C@@H]5C[C@H](NS(=O)(=O)c6ccc7ccccc7c6)CN5C4=O)cc3[nH]2)c1N [Example 5-1-276]
(2) Cc1cc2cc(C(=O)c3cnn(-c4c(C)cc(Oc5cccc(F)c5F)cc4F)c3N)[nH]c2cc1NS(=O)(=O)N1CCOCC1 [Example 5-1-066]
(3) Cc1cc(Oc2ccccc2F)ccc1-n1ncc(C(=O)c2cc3cc(OCC(F)F)c(N4C(=O)[C@@H]5C[C@@H](O)CN5C4=O)cc3[nH]2)c1N [Example 5-1-250]
(4) Cc1cc2cc(C(=O)c3cnn(-c4cnc(Oc5c(F)cccc5F)cc4C)c3N)[nH]c2cc1N1C(=O)NC2(CCOCC2)C1=O [Example 5-1-342]
Q: Order by IC50, ascending. Response format: the labels, sorted as the prompt asks.
Result: 3, 4, 1, 2
(3: 2.8 nM, 4: 5.3 nM, 1: 35 nM, 2: 77 nM)

(1) Cc1cc(Oc2ccccc2F)ccc1-n1ncc(C(=O)c2cc3cc(N4CCOCC4)c(N4C(=O)C(C)(C)NC4=S)cc3[nH]2)c1N [Example 5-1-120]
(2) Cc1cc(Oc2ccccc2Cl)nc(C)c1-n1ncc(C(=O)c2cc3cc(F)c(NS(C)(=O)=O)cc3[nH]2)c1N [Example 5-1-051]
Q: Of the pair 1 and 2 , name the member with the lesser recorded IC50. State the label of the item chosen.
Result: 1

(P) Cc1cc(Oc2c(F)cccc2F)ncc1-n1ncc(C(=O)c2cc3cc(OCC(F)F)c(NS(=O)(=O)c4cccnc4)cc3[nH]2)c1N [Example 5-1-384]
(Q) Cc1cc2cc(C(=O)c3cnn(-c4ccc(Oc5ccccc5F)c(F)c4F)c3N)[nH]c2cc1NS(C)(=O)=O [Example 5-1-214]
(R) Cc1cc(-n2ncc(C(=O)c3cc4cc(OC5CCN(C6CCC6)CC5)c(N)cc4[nH]3)c2N)ccc1Oc1ccccc1F [Example 5-1-232]
(S) Cc1cc(Oc2c(F)cccc2F)ncc1-n1ncc(C(=O)c2cc3cc(OC4CCN(C(C)C)CC4)c(NS(C)(=O)=O)cc3[nH]2)c1N [Example 5-1-184]
Q: Arrange by IC50, high to low. Response format: the labels, sorted as the prompt asks.
Result: P, R, Q, S
(P: 44 nM, R: 30 nM, Q: 11 nM, S: 2.6 nM)

(P) Cc1cc(Oc2ccccc2F)ccc1-n1ncc(C(=O)c2cc3cc(OCC(F)F)c(N4C(=O)NC5(CCN(C6COC6)CC5)C4=O)cc3[nH]2)c1N [Example 5-1-272]
(Q) Cc1cc(-n2ncc(C(=O)c3cc4cc(OC5CCN(C6COC6)CC5)c(Br)cc4[nH]3)c2N)ccc1Oc1ccccc1F [Example 5-1-220]
Q: Lab note: record which item had the higher IC50, P or Q . State the label of the item chosen.
Result: Q
